Origin of measurements: PubChem BioAssay (NCI)

test system: CAKI-1 renal; assay: NCI-60 one-dose screen, 48 h (100 = growth as untreated, 0 = no growth, -100 = all killed); details: 10 µM unless noted
Compounds without any hit were thinned out: in the full panel of roughly 83,000, 20% have a hit.
Assay Endpoint: growth (%)
Give bare numbers, in %.

Example cases with answers are listed next.
Compound | Target Or Test System | growth (%)
CN1CCN(c2ccc(C(=O)/C=C/c3ccc(Br)cc3)cc2)CC1 | CAKI-1 renal | 30.8
N#Cc1c(NCc2ccccc2)n[nH]c1Nc1ccccc1 | CAKI-1 renal | 33.4
OCC1(CCCc2ccccc2)CCCN(c2nccc3ccccc23)C1 (centres undefined) | CAKI-1 renal | 38.6

Continue with the compound presented below.
Return growth (reported value) for this compound: N/C(=N\c1nc2ccccc2s1)NC(=O)Nc1ccccc1Br
-17.4

----------
test system: OVCAR-5 ovarian; test: NCI-60 one-dose screen, 48 h; conditions: 10 µM unless noted
This is part of a sample that, as a whole, favours compounds with a hit. Of some 83,000 tested, about 20% had one in any assay. Active and inactive are the calls of the source. Rule for the calls: active = growth percent below 10; inactive = the rest.
Valid outcomes are listed here; reply with one: active, inactive

Molecule | Qualitative Label
COc1cccc(COc2ccc(NC(=O)Nc3ccc(Cl)c(C(F)(F)F)c3)cc2)c1 | inactive

Outcome? Cn1cc(-c2cc(N)n3nc(-c4cn(C)c5ncc(Br)cc45)cc3n2)c2cc(Br)cnc21
inactive

----------
test system: RPMI-8226 leukemia; assay: NCI-60 one-dose screen, 48 h (100 = growth as untreated, 0 = no growth, -100 = all killed); details: 10 µM unless noted
Compounds without any hit were thinned out: in the full panel of roughly 83,000, 20% have a hit.
Would you kindly list growth for each of these compounds?
One number for each entry, in %.

Compound | Experimental Value
CC1(C)CC[C@]2(C(=O)Nc3ccc(Br)cc3)CC[C@]3(C)C(=CCC4[C@@]5(C)C[C@@H](O)[C@H](O)[C@@](C)(CO)C5CC[C@]43C)C2C1 (some centres not stated) | -33.5

# return growth for each item in the list
1. COc1cc2nc(SCc3ccccc3)n(-c3ccc(Cl)cc3)c(=O)c2cc1OC
2. CCN(CC)c1ccnc(CNCCSC(c2ccccc2)(c2ccccc2)c2ccc(OC)cc2)c1
3. CCCCNC(=S)Nc1ccc(OCc2nc3ccccc3[nH]2)cc1
4. O=C(NNc1ccccc1)n1c(=O)c2ccccc2c(=O)n1-c1ccccc1
5. COCOc1cc2c(=O)c(C)c(C(=O)N[C@@H](Cc3ccccc3)C(O)C(=O)NCc3ccccc3)oc2cc1OC (some centres not stated)
6. Cn1cc(-c2cc(N)n3nc(-c4c[nH]c5ccccc45)cc3n2)c2cc(Br)cnc21
7. OCNc1ccc(-n2cnc3cc(-c4ccc(O)cc4)ccc32)cc1C(F)(F)F

1: 34; 2: -55.9; 3: 58.8; 4: 102; 5: 67.3; 6: -14.8; 7: 24.1

Please go through the list and note growth for each compound.
1. N/C(=N\c1nc2ccccc2s1)NC(=O)Nc1ccccc1Br
2. CC(=O)Nc1ccc(-n2cnc3ccc(-c4ccc(O)cc4)cc32)cc1

1: -0.145; 2: 38.9

Batch request: growth for each of the following compounds.
1. N#Cc1c(-c2ccc(Cl)cc2)nc2n[nH]c(-c3ccc(Cl)cc3)c2c1-c1cccs1
2. COc1cc(CNC(=O)/C=C/c2ccc3c(c2)OCO3)ccc1OCc1cn(-c2cccc(C(F)(F)F)c2)nn1
3. N/N=C(\N)c1c(N)nc(=S)[nH]c1-c1ccc(Cl)cc1Cl
4. CCCCCCCCc1ccc(S(=O)(=O)Nc2ccc(CC)cc2C(=O)O)cc1

[17.7, 40.9, 109, 71.1]

Batch: growth for all items listed.
1. S=C(NCCc1ccccc1)Nc1ccc(OCc2nc3ccccc3[nH]2)cc1
2. CN(C)c1ccnc(CNCCSC2(c3ccc(C(F)(F)F)cc3)c3ccccc3C=Cc3ccccc32)c1
3. Nc1cc2ccccc2c(=O)n1NC(=O)c1ccc(I)cc1

1. 101
2. -48.9
3. 98
